System: IFNα-induced STAT phosphorylation (pSTAT5) in human whole blood
Assay: IFNα-Induced STAT Phosphorylation in Human Whole Blood
Assay type: cell-based
Conditions: Homo sapiens, 1 h incubation with compound, 1000 U/mL recombinant human IFNα A/D for 15 min, pSTAT5 in CD3 positive population, read-out: IFNα-Induced Stat Phosph. (IC50)
Reported property: IC50 (nM)

Known IC50 results, listed for orientation:
[2H]C([2H])([2H])NC(=O)c1nnc(Nc2cccnn2)cc1Nc1ncccc1S(C)(=O)=O ... 7
[2H]C([2H])([2H])NC(=O)c1nnc(Nc2ccn(C)n2)cc1Nc1ncccc1S(C)(=O)=O ... 40
[2H]C([2H])([2H])NC(=O)c1nnc(NC(=O)[C@@H]2C[C@H]2C(F)(F)F)cc1Nc1ncccc1S(C)(=O)=O ... 132
[2H]C([2H])([2H])NC(=O)c1nnc(Nc2ccc(C(C)(C)O)cn2)cc1Nc1ncccc1S(C)(=O)=O ... 2
[2H]C([2H])([2H])NC(=O)c1nnc(Nc2cncc(C)n2)cc1Nc1ncccc1S(C)(=O)=O ... 17

A = [2H]C([2H])([2H])NC(=O)c1nnc(NC(=O)[C@H]2C[C@@H]2C(F)(F)F)cc1Nc1ncccc1S(C)(=O)=O
B = [2H]C([2H])([2H])NC(=O)c1nnc(Nc2ccc(C(F)F)cn2)cc1Nc1ncccc1S(C)(=O)=O
Asked: # return whichever of A and B has the smaller IC50 Indicate your choice by writing its label.
Given back: B
(B: 18 nM, A: 278 nM)

Where do these numbers come from? They come from patent US12365667B2.
